- system_tested: dTDP-4-dehydrorhamnose reductase (Mycobacterium tuberculosis (strain ATCC 25618 / H37Rv)) + dTDP-4-dehydrorhamnose 3,5-epimerase (Mycobacterium tuberculosis (strain ATCC 25618 / H37Rv)) (UniProt P9WH09+P9WH11)
- Sequence (P9WH09 whole entry, looked up): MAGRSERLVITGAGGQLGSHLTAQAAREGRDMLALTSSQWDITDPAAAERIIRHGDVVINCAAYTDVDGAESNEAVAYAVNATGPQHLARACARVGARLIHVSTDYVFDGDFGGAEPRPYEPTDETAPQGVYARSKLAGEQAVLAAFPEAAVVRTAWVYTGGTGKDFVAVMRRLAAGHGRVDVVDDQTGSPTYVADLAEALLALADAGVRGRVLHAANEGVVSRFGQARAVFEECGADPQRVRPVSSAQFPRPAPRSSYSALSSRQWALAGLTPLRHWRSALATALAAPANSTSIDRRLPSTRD
- Sequence (P9WH11 whole entry, looked up): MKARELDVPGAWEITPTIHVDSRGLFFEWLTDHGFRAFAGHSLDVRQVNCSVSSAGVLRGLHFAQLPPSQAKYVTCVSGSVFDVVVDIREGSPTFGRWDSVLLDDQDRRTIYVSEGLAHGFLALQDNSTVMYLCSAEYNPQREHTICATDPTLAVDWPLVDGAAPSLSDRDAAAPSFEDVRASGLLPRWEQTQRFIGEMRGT
- assay_summary: M. tuberculosis RmlC/RmlD coupled enzyme inhibitors, primary screen, biochemical, compound mixtures, 384-well, from 1536-well plates (AID 1533)
- run_parameters: RmlC+RmlD coupled enzyme assay, percent inhibition; primary screen in compound mixtures; at 3.6 µM; active compounds read high
The campaign covered roughly 160,000 compounds. About 45 (0.03%) were called active. The list comes from a sample in which actives are over-represented; it also holds close analogues and randomly drawn compounds.

molecule	inhibition (%)
CCCCCN(C(=O)NC(=O)Nc1cccc(C)c1C)S(C)(=O)=O	-12.7
NC(=O)c1ccc(NC(=O)COC(=O)c2ccc([N+](=O)[O-])cc2)cc1	11.7
Cc1cc(C(=O)OCC(=O)Nc2nccs2)c2ccccc2n1	9.68
Cc1ccc(NC(=O)c2ccc(S(=O)(=O)NCC3CCCO3)cc2)cc1C (stereo unspecified)	0.36
Cc1ccc(-c2nn(-c3cccc(F)c3)cc2CNCCc2ccncc2)o1	-11.7
Cc1ccc(CSc2nc3[nH]ncc3c(=O)[nH]2)cc1	65.1
C=CCC1(C#N)C(=S)NC(C)=C(C(=O)OCC)C1c1ccccc1 (stereo unspecified)	-2.23
CCOC(=O)COc1nc(C)cc(C(F)(F)F)c1C#N	2.06
COC(=O)c1ccccc1N=Nc1c(C)[nH][nH]c1=O	-10.6
CCOc1ccc(NS(=O)(=O)c2cc(C)c(C)cc2C)cc1	-11.4
Cc1c(NC(=O)CN2C(=O)C(=O)N(Cc3ccccc3)C2=O)c(=O)n(-c2ccccc2)n1C	7.63
